Hi there, I'd appreciate the recorded MIC for every entry that follows.
- Tested on: E. cloacae 2689
- EXPERIMENTAL_DETAILS: MIC against E. cloacae 2689
- Format: cell-based
- CONDITION_INFO: Enterobacter cloacae; Table 3; E. cloacae 2689, KPC-2; alone; read-out: MIC
Answers are plain numbers, in µg/mL.

Study these solved cases before continuing.
MOLECULE	MIC (µg/mL)
CC(C)(O/N=C(\C(=O)N[C@@H]1C(=O)N2C(C(=O)[O-])=C(C[n+]3ccc4c(ccn4Cc4cc(C(=N)N)cs4)c3)CS[C@H]12)c1csc(N)n1)C(=O)O [Example 5]	16
CO/N=C(\C(=O)N[C@@H]1C(=O)N2C(C(=O)[O-])=C(C[n+]3ccc4c(ccn4Cc4cc(C(=N)Nc5ccccc5)cs4)c3)CS[C@H]12)c1nc(N)sc1Cl [Example 12]	32
CC(C)(O/N=C(\C(=O)N[C@@H]1C(=O)N2C(C(=O)[O-])=C(C[n+]3ccc4n3CCN4Cc3ccc(C(=N)N)cc3)CS[C@H]12)c1csc(N)n1)C(=O)O [Example 2]	8
CC(C)(O/N=C(\C(=O)N[C@@H]1C(=O)N2C(C(=O)[O-])=C(C[n+]3ccc4n(Cc5ccc(C(=N)N)cc5)ccn43)CS[C@H]12)c1csc(N)n1)C(=O)O [Example 4]	4
CO/N=C(\C(=O)N[C@@H]1C(=O)N2C(C(=O)[O-])=C(C[n+]3ccc4c(ccn4Cc4cc(C(=N)Nc5nccs5)cs4)c3)CS[C@H]12)c1nc(N)sc1Cl [Example 14]	16

Hey, can you go through the list below and give me MIC for every item?
1. CC(C)(O/N=C(\C(=O)N[C@@H]1C(=O)N2C(C(=O)[O-])=C(C[n+]3ccc4c(ccn4Cc4cc(C(=N)N)co4)c3)CS[C@H]12)c1csc(N)n1)C(=O)O [Example 6]
2. CC(C)(O/N=C(\C(=O)N[C@@H]1C(=O)N2C(C(=O)[O-])=C(C[n+]3ccc4c(ccn4Cc4ccc(C(=N)N)cc4)c3)CS[C@H]12)c1csc(N)n1)C(=O)O [Ex-1]

Reply:
16
32

---

- System: C. freundii 579
- EXPERIMENTAL_DETAILS: MIC against C. freundii 579
- Format: cell-based
- CONDITION_INFO: Table 2; C. freundii 579, Caz R, IMP S; in combination with NXL-104
MEASURED_METRIC: MIC (µg/mL)
One number for each entry, in µg/mL.

Completed entries (count: 3):
COMPOUND	TARGET_UNDER_TEST	QUANTITY_UNIT	VALUE_OBSERVED
CC(C)(O/N=C(\C(=O)N[C@@H]1C(=O)N2C(C(=O)[O-])=C(C[n+]3ccc4c(ccn4Cc4cc(C(=N)N)cs4)c3)CS[C@H]12)c1csc(N)n1)C(=O)O	C. freundii 579	µg/mL	0.25
CC(C)(O/N=C(\C(=O)N[C@@H]1C(=O)N2C(C(=O)[O-])=C(C[n+]3ccc4n3CCN4Cc3ccc(C(=N)N)cc3)CS[C@H]12)c1csc(N)n1)C(=O)O	C. freundii 579	µg/mL	0.50
CC(C)(O/N=C(\C(=O)N[C@@H]1C(=O)N2C(C(=O)[O-])=C(C[n+]3ccccc3)CS[C@H]12)c1csc(N)n1)C(=O)O [CAZ, ceftazidime, reference compound]	C. freundii 579	µg/mL	2.00

Please look at the following compound next.
Query: If you can, please state the reported MIC value of CC(C)(O/N=C(\C(=O)N[C@@H]1C(=O)N2C(C(=O)[O-])=C(C[n+]3ccc4c(ccn4Cc4cc(C(=N)N)co4)c3)CS[C@H]12)c1csc(N)n1)C(=O)O .
Reply: 0.25
